target: GABA-A receptor; alpha-1/beta-3/gamma-2 (Homo sapiens) (UniProt P14867+P18507+P28472)
protocol-summary: Maximal response relative to Gamma-aminobutyric acid A against human Gamma-aminobutyric-acid A receptor alpha-1-beta-3-gamma-2 expressed in Xenopus oocytes
Format: functional, cell-based
condition-parameters: Oocyte
Listed next: entries and their corresponding Max.
measured-quantity: Max

| compound-structure-string | measured-value |
| --- | --- |
| O=S(=O)(O)C1CCNCC1 | 21 |
| NCCC[Se](=O)O | 30 |
| O=C(O)C1CCNCC1 | 46 |
| O=[Se](O)C1CCNCC1 | 3 |
| O=C(O)Cc1c[nH]cn1 | 24 |
| NCCCC(=O)O | 100 |
| O=C(O)C1=CCNCC1 | 88 |
| O=[PH](O)C1CCNCC1 | 5 |

---

A collection of molecules and their measured pEC50
target: GABA-A receptor; alpha-5/beta-3/gamma-2 (Homo sapiens, UniProt P18507+P28472+P31644)
protocol-summary: Effective agonist dose for human Gamma-aminobutyric acid A receptor alpha-5-beta-3-gamma-2 expressed in Xenopus oocytes
pEC50: −log10 of the molar value.

| compound-structure-string | target | pEC50 |
| --- | --- | --- |
| NCCC[Se](=O)O | GABA-A receptor; alpha-5/beta-3/gamma-2 (Homo sapiens, UniProt P18507+P28472+P31644) | 2.72 |
| O=C(O)C1=CCNCC1 | GABA-A receptor; alpha-5/beta-3/gamma-2 (Homo sapiens, UniProt P18507+P28472+P31644) | 4.12 |
| O=[PH](O)C1CCNCC1 | GABA-A receptor; alpha-5/beta-3/gamma-2 (Homo sapiens, UniProt P18507+P28472+P31644) | 3.59 |
| O=[Se](O)C1CCNCC1 | GABA-A receptor; alpha-5/beta-3/gamma-2 (Homo sapiens, UniProt P18507+P28472+P31644) | 3.38 |
| O=C(O)Cc1c[nH]cn1 | GABA-A receptor; alpha-5/beta-3/gamma-2 (Homo sapiens, UniProt P18507+P28472+P31644) | 3.38 |
| O=C(O)C1CCNCC1 | GABA-A receptor; alpha-5/beta-3/gamma-2 (Homo sapiens, UniProt P18507+P28472+P31644) | 3.16 |
| O=S(=O)(O)C1CCNCC1 | GABA-A receptor; alpha-5/beta-3/gamma-2 (Homo sapiens, UniProt P18507+P28472+P31644) | 4.70 |

---

Entries annotated with measured Ki
target: GABA-A receptor; alpha-5/beta-3/gamma-2 (Homo sapiens, UniProt P18507+P28472+P31644)
protocol-summary: Antagonistic potency against human Gamma-aminobutyric acid A receptor alpha-5-beta-3-gamma-2 expressed in Xenopus oocytes at 1 mM
measured-quantity: Ki

| compound-structure-string | measured-quantity | measured-value |
| --- | --- | --- |
| O=[PH](O)C1(O)CCNCC1 | Ki | 1900 µM |
| CP(=O)(O)C1CCNCC1 | Ki | 420 µM |
| O=P(O)(O)C1CCNCC1 | Ki | 2800 µM |

---

target: GABA-A receptor; alpha-3/beta-3/gamma-2 (Homo sapiens, UniProt P18507+P28472+P34903)
protocol-summary: Antagonistic potency against human Gamma-aminobutyric acid A receptor alpha-3-beta-3-gamma-2 expressed in Xenopus oocytes at 1 mM
pKi: −log10 of the molar value.

| compound-structure-string | target | pKi |
| --- | --- | --- |
| O=[PH](O)C1(O)CCNCC1 | GABA-A receptor; alpha-3/beta-3/gamma-2 (Homo sapiens, UniProt P18507+P28472+P34903) | 2.31 |
| O=P(O)(O)C1CCNCC1 | GABA-A receptor; alpha-3/beta-3/gamma-2 (Homo sapiens, UniProt P18507+P28472+P34903) | 2.42 |
| CP(=O)(O)C1CCNCC1 | GABA-A receptor; alpha-3/beta-3/gamma-2 (Homo sapiens, UniProt P18507+P28472+P34903) | 3.52 |

---

target: GABA-A receptor; alpha-2/beta-3/gamma-2 (Homo sapiens) (UniProt P18507+P28472+P47869)
protocol-summary: Maximal response relative to Gamma-aminobutyric acid A against human Gamma-aminobutyric-acid A receptor alpha-2-beta-3-gamma-2 expressed in Xenopus oocytes
Format: functional, cell-based
condition-parameters: Oocyte
Decide by Max: equal to or exceeding 50 means Fulfilled, less means Not fulfilled.

| compound-structure-string | class |
| --- | --- |
| O=C(O)C1=CCNCC1 | Fulfilled |
| NCCCC(=O)O | Fulfilled |
| O=C(O)C1CCNCC1 | Fulfilled |
| O=C(O)Cc1c[nH]cn1 | Fulfilled |
| O=[Se](O)C1CCNCC1 | Not fulfilled |
| NCCC[Se](=O)O | Not fulfilled |
| O=[PH](O)C1CCNCC1 | Not fulfilled |
| O=S(=O)(O)C1CCNCC1 | Fulfilled |

---

target: GABA-A receptor; alpha-1/beta-3/gamma-2 (Homo sapiens, UniProt P14867+P18507+P28472)
Sequence (P14867 whole entry, one chain of several): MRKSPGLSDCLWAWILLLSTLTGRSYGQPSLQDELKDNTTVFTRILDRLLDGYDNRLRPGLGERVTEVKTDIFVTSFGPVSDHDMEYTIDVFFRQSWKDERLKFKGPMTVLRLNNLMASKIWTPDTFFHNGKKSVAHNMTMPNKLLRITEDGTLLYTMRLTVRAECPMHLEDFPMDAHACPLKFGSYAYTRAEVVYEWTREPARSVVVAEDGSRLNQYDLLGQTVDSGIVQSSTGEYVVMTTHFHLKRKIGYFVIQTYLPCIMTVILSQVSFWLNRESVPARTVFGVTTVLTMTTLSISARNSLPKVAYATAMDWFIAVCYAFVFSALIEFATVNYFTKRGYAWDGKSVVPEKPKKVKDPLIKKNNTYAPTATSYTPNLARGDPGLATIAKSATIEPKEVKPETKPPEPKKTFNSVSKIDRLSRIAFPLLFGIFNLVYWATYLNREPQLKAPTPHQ
protocol-summary: Effective agonist dose for human Gamma-aminobutyric acid A receptor alpha-1-beta-3-gamma-2 expressed in Xenopus oocytes

| compound | EC50 |
| --- | --- |
| O=C(O)C1=CCNCC1 [ISOGUVACINE] | 160 µM |
| O=C(O)C1CCNCC1 [ISONIPECOTIC ACID] | 620 µM |
| NCCC[Se](=O)O | 1400 µM |
| O=C(O)Cc1c[nH]cn1 [IMIDAZOLE ACETIC ACID] | 310 µM |
| O=[Se](O)C1CCNCC1 | 200 µM |
| O=S(=O)(O)C1CCNCC1 | 40 µM |
| O=[PH](O)C1CCNCC1 | 270 µM |

---

target: GABA-A receptor; alpha-2/beta-3/gamma-2 (Homo sapiens, UniProt P18507+P28472+P47869)
Sequence (P18507 whole entry): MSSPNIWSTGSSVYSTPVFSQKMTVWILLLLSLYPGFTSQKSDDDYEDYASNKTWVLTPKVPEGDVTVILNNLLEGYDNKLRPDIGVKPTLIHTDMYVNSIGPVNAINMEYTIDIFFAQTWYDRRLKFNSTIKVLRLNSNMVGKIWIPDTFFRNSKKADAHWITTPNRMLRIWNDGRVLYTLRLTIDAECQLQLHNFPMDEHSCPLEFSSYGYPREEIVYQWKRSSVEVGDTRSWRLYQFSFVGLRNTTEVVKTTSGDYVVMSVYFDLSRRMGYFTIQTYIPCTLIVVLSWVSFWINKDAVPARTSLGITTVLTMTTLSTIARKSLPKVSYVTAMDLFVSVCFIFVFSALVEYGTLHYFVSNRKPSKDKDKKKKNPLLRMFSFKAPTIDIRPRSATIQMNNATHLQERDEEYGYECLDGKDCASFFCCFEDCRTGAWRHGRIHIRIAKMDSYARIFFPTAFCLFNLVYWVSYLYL
Sequence (P28472 whole entry): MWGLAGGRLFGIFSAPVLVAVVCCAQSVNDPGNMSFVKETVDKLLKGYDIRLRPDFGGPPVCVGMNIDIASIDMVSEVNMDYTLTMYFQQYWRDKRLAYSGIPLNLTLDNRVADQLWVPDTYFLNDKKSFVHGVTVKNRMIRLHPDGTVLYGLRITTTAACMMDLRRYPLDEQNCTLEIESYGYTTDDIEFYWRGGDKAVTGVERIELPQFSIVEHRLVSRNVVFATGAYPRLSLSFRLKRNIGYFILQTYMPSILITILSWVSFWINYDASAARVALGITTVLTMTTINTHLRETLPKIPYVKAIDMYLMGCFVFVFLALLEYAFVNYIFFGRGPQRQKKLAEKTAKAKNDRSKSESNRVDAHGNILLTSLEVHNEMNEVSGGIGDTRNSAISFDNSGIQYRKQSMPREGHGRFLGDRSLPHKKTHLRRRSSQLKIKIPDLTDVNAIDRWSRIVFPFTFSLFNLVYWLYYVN
Sequence (P47869 whole entry): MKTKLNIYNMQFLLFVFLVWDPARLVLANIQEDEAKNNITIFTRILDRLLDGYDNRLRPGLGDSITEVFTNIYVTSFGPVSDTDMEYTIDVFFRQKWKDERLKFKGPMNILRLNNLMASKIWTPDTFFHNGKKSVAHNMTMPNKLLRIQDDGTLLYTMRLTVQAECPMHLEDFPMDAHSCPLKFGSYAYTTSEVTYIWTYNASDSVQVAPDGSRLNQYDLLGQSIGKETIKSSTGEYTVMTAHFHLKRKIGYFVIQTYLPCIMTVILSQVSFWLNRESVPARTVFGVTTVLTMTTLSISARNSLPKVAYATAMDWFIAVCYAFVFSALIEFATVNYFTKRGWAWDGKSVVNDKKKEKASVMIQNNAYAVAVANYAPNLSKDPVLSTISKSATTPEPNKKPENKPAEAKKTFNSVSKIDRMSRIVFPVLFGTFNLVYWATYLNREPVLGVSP
protocol-summary: Agonist activity on human Gamma-aminobutyric acid A receptor alpha-2-beta-3-gamma-2 expressed in Xenopus oocytes
Assay type: functional, cell-based, Oocyte
measured-quantity: EC50 (µM)

| compound-structure-string | measured-quantity | units-label | measured-value |
| --- | --- | --- | --- |
| O=C(O)C1CCNCC1 | EC50 | µM | 420 |
| O=[PH](O)C1CCNCC1 | EC50 | µM | 280 |
| O=C(O)C1=CCNCC1 | EC50 | µM | 50 |
| NCCC[Se](=O)O | EC50 | µM | 1500 |
| O=C(O)Cc1c[nH]cn1 | EC50 | µM | 600 |
| O=S(=O)(O)C1CCNCC1 | EC50 | µM | 26 |
